Reference for the values: patent US12129308

target entity: bovine MMP13 (bovine, UniProt O77656 104-471)
measurement notes: cell-based or functional assay
observable: IC50, bovine fluorogenic peptide assay (nM)

# binder, observable, readout value
records = [
    ("C0101PMP529C12 (VHH, Profile 2 Nanobody; also called C0101529C12) VHH: DVQLVESGGGLVQPGGSLRLSCVASGSIFSINAMGWYRQAPGKQRELVAAISSGGSTYYADSVKGRFTISRDNSKNTVYLQMNSLRPEDTAVYYCNAAVDASRGLPYELYYYWGQGTLVTVSS", "IC50, bovine fluorogenic peptide assay", 1.2),
    ("C0101PMP062C02 (VHH, Profile 2 Nanobody; also called C0101062C02) VHH: EVQLVESGGALVRPGGSLRLSCAASGFAFSAAYMSWVRQAPGRGLEWVSSISDDGSKTYYADSVKGRFTISRDNAKNTVYLQMNNLKPDDTAVYYCNTGYGATTTRPGRYWGQGTQVTVSS", "IC50, bovine fluorogenic peptide assay", 3.1),
    ("C0101PMP063F01 (VHH, Profile 2 Nanobody) VHH: EVQLVESGGGLVQPGGSLRLSCSASTGIFRINTMGWHRQAPGKQRDLVATFTSDDNTKYADSVKGRFTISRDNAENTVYLQMNDLKPEDTAVYYCHATTVMYDSNSPDYWGQGTQVTVSS", "IC50, bovine fluorogenic peptide assay", 191),
    ("C0101PMP521F02 (VHH, Profile 2 Nanobody) VHH: DVQLVESGGGLVQPGGSLRLSCVASGLTFSSYAMGWFRQAPGKEREFVAAISWSGGRTYYADSVKGRFTISRDNSKNTVYLQMNSLRPEDTAVYYCTAARGPGSVGPSEEYNYWGQGTLVTVSS", "IC50, bovine fluorogenic peptide assay", 16.1),
    ("C0101PMP516G08 (VHH, Profile 2 Nanobody; also called C0101516G08) VHH: DVQLVESGGGLVQPGGSLRLSCAGSGSIFRINVMAWYRQAPGKQRELVAAITSGGTTNYADSVKGRFTISRDNSKNTVYLQMNSLRPEDTAVYYCYADIGWPYVLDYDFWGQGTLVTVSS", "IC50, bovine fluorogenic peptide assay", 1.5),
    ("C0101PMP520B06 (VHH, Profile 2 Nanobody) VHH: DVQLVESGGGLVQPGGSLRLSCAASGRTFSSYAMGWFRQAPGKEREFVAAISWGGGSTYYSDSVKGRFTISRDNSKNTVYLQMNSLRPEDTAVYYCTAALGSTGSGSTPVPEYRYWGQGTLVTVSS", "IC50, bovine fluorogenic peptide assay", 27.7),
]
